The following compounds are shown together with reported Proportion of D. citri responding to treatment arm values.
# System: Diaphorina citri
# EXPERIMENT_NOTES: Two-port T-olfactometer behavioral bioassay with synthetic chemicals vs. clean air (solvent-only wick)
# Format: in vivo
# ASSAY_SETUP: dosage 0.1 μg on cotton wick; non-infected female adults; treatment vs solvent control arm
# Excerpt: A custom designed two-port divided T-olfactometer [Analytical Research Systems (ARS), Inc. Gainesville, Fla.] that has been thoroughly described in [98] was used to evaluate behavioral response of D. citri. […] MeSA was released in greater quantities from Las-infected plants than non-infected plants, while MeAN and D-limonene were released in greater quantities by non-infected than infected plants (See results). […]
Output: the number by itself.

COC(=O)c1ccccc1O [Methyl salicylate, methyl salicylate] : 54.76

Query :: Form field: Proportion of D. citri responding to treatment arm recorded for COC(=O)c1ccccc1N [Methyl anthranilate, methyl anthranilate] with Diaphorina citri (enter value)
Result :: 61.76

Query :: Form field: Proportion of D. citri responding to treatment arm recorded for C=C(C)[C@H]1CC=C(C)CC1 with Diaphorina citri (enter value)
Result :: 54.39

Query :: Form field: Proportion of D. citri responding to treatment arm recorded for C=CC(C)=CCC=C(C)C [β-ocimene, reference compound] with Diaphorina citri (enter value)
Result :: 53.19

---

# System: Diaphorina citri
# EXPERIMENT_NOTES: Two-port T-olfactometer behavioral bioassay with synthetic chemicals vs. clean air (solvent-only wick)
# Format: in vivo
# ASSAY_SETUP: dosage 10.0 μg on cotton wick; non-infected female adults; treatment vs solvent control arm
The following compounds are shown together with reported Proportion of D. citri responding to treatment arm values.
Output: the number by itself.

Recorded results for 3 compounds are shown here.
COC(=O)c1ccccc1N [Methyl anthranilate, methyl anthranilate] : 56.10
COC(=O)c1ccccc1O [Methyl salicylate, methyl salicylate] : 41.03
C=C(C)[C@H]1CC=C(C)CC1 : 60.24

Note: attention shifts to another entry.
Query :: Need Proportion of D. citri responding to treatment arm, item C=CC(C)=CCC=C(C)C [β-ocimene, reference compound]
Result :: 61.46
